Reported nuclei count values follow for various compounds
# assay.details: endothelial E-selectin expression blockers – imaging, HUVEC, immunofluorescence, MLSMR starter and 10KST1 sets, primary screen (AID 487);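 further: 100% = median nuclei count of all wells on the same plate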
# stated.conditions: HUVEC TNFalpha-induced E-selectin immunofluorescence imaging, at 2 µM; measured here: cell number, toxicity
Note: unit % is implicit; provide only the numeric part.

Example entries begin here.
compound: Cc1nn(-c2ccc(F)cc2)c(C)c1NS(=O)(=O)c1ccc(Cl)cc1
nuclei count, %: 98.7
//
compound: CC(CCc1ccccc1)NC(=O)c1ccc(Br)o1 (stereo unspecified)
nuclei count, %: 95.1
//
compound: COc1ccc(OC)c(Nc2cc(-c3ccccc3)nc(N)n2)c1
nuclei count, %: 115
//
compound: Cc1ccc(NC(=O)COS(=O)c2ccc(C)cc2)cc1 (stereo unspecified)
nuclei count, %: 125

**Query** State its nuclei count: COc1ccc(-c2ccc(CCC(=O)O)n2NC(=O)c2cccs2)cc1
**Result** 131

**Query** State its nuclei count: CCc1ccccc1N1C(=O)C2CC(C)=C(C)CC2C1=O (stereo unspecified)
**Result** 124
